CC50 listing for selected compounds.
# Test system: HepG2
# assaySummary: Cytostatic concentration required to inhibit Hep G2 cell proliferation
# Format: functional
# runConditions: Homo sapiens

| compound | unitString | CC50 |
| --- | --- | --- |
| Nc1nc(NC2CC2)c2ncn([C@H]3C=C[C@@H](CO)C3)c2n1 | µM | 110 |
| CCOC(=O)[C@@H](C)NP(=O)(OC[C@@H]1C=C[C@H](n2cnc3c(NC4CC4)nc(N)nc32)C1)Oc1ccccc1 (stereo in doubt; 6) | µM | 18 |
| COC(=O)[C@H](C)NP(=O)(OC[C@@H]1C=C[C@H](n2cnc3c(NC4CC4)nc(N)nc32)C1)Oc1ccccc1 (stereo partly drawn) | µM | 52 |
